System: MS2 coat protein
Test: apparent KD of MS2 coat protein; designed switch direction (-1 OFF switch, 1 ON switch): -1; higher = weaker reporter binding
Details: input ligand: none
READOUT_NAME: apparent KD of MS2 coat protein (µM)
Give bare numbers, in µM.

Give me apparent KD of MS2 coat protein for each of these sequences, listed below.
1. AAAUAGCAUGAGGAUAUUGAACUGUAUAUAGUACGAGAAGGCAUGACAUGAGGAUCACCCAUGUUUUGUUGGGA [EX6 #3] (Eterna round: R97, puzzle: Exclusion 6)
2. AGCCAAGCAGGAUAUAUCCGGGAUAACAUGAGGAUCACCCAUGUGACCGAUUGAUGUCCUAUAGAAGGGCUUGGGA [Mod of ViennaUCT 22 - Jieux - Exclusion 5] (Eterna round: R97, puzzle: Exclusion 5)
3. UGAUCAGACCGAGGAUAUACAUGUAGGACGCACGUGAGUGCGUCCAUUACAUGAGGAUCACCCAUGUAGAAGGCGGUCUGAUCU [JL ENG2 1.93] (Eterna round: R96, puzzle: Exclusion NG 2)
4. AUUUUGUGAGGAUAUUAGUUUUAUAAUUUUAUUAGUUUAGCUGAGAAGGCACAUGAGGAUCACCCAUGUAAAUC [JR_Ex4_Sub045] (Eterna round: R97, puzzle: Exclusion 4)
5. UGAAGUUGUGUGAGGAUAUUUGAAGUGAAAGCUUCGGAGAAGGCACAUGAGGAUCACCCAUGUAAGCGGCUUCG [-25.1, -23 kcal, A 26%, 3bis-3] (Eterna round: R97, puzzle: Brourd's mod of Exclusion 4)

[0.0332, 0.0435, 0.157, 0.0229, 0.015]

====

Give measured apparent KD of MS2 coat protein for each item. Keep answers brief.
Test system: MS2 coat protein
Assay: apparent KD of MS2 coat protein; designed switch direction (-1 OFF switch, 1 ON switch): 1; higher = weaker reporter binding
Conditions: input ligand: microRNA oligo, concentration not stated
Answers are plain numbers, in nM.

# annotated cases, reported apparent KD of MS2 coat protein shown
Any idea what apparent KD of MS2 coat protein was measured for UUUGCAUGACGAGGAUAUCAUUUAUUUCUUGAUUGAGAAGGCGUUCUUUUUAAUACCUAACAUGAGGAUCACCCAUGUGACAGU [JR_SSNG1_Sub047] (Eterna round: R96, puzzle: Same State NG 1) ?
13.1

Looking for the measured apparent KD of MS2 coat protein of GCCGCGUUUCGCGCCUACAUGAGGAUCACCCAUGUUUGUAGGCAGGAUAUCGUUUGCUUUGCAGGCGAGAAGGGCUGUUGUGGC [salish99_SSNG3_R04_016] (Eterna round: R96, puzzle: Same State NG 3) , can you help?
39.1

Given UGUUGUUAAUUAGGAUAUGGACACAUGAGGAUCACCCAUGUAAUGUCGAUGCUAUGUGGACACGUUCAGAAGGAAUGGCUAACA [SameState NG2 #92] (Eterna round: R96, puzzle: Same State NG 2) , state its recorded apparent KD of MS2 coat protein.
53.2

Which value of apparent KD of MS2 coat protein has been reported for AAAGGAUGAUGUUACAUGAGGAUCACCCAUGUAGUGAUAACUAAGGAUAUGUGUUAAACCAGUUAAUAGAAGGUAGGAUCAUUA [AK SSNG3-V2-6] (Eterna round: R96, puzzle: Same State NG 3) in the records?
35.1

For the sequence UACAAUCUAUCUGAGGAUAUCAUGAAAAAAACAUGAGGAUCACCCAUGUGCAGGAAAACUGCAUAUGAGAAGGCAGAUAGAUUGU [salish99_SS2_r3_006] (Eterna round: R96, puzzle: Same State 2) , what apparent KD of MS2 coat protein is on record?
585

Provide reported apparent KD of MS2 coat protein for each item, in the same order as listed.
1. GCCGCGUUUCGCGCCUACAUGAGGAUCACCCAUGUUUGUAGGCAGGAUAUCGUUUGCUUUGCAAUCGAGAAGGGCUGUUGUGGC [salish99_SSNG3_R04_014] (Eterna round: R96, puzzle: Same State NG 3)
2. GUUACAUGAGGAUCACCCAUGUAUGUGUGGGAGUAAGUGUCUUAGGAUAUCUAUCAUUUAAUUCAAGAGAAGGAAGAUUGUUGU [JMF's solution 100] (Eterna round: R96, puzzle: Same State NG 3)

44.6
96.1

Please state, for each entry, its recorded apparent KD of MS2 coat protein.
1. UGGCUGAGUCGAGGAUAUUAUGGAUCCUCUAAUACAUGAGGAUCACCCAUGUAAUUAAUUAUACAUGAGAAGGUGACUCAGCCA [SSNG2/12-B2] (Eterna round: R96, puzzle: Same State NG 2)
2. AAACGGCCCAACGGAGGGCCACAUGAGGAUCACCCAUGUACAUAGGAUAUCACGCCAACGAGGCGUGAGAAGGGUGAUUAAAAC [Bisomaor] (Eterna round: R96, puzzle: Same State NG 3)
3. CUGAGAUGUCAAGGAUAUCACGUCGAUUAGACGUGAGAAGGUGAUCUGCACAUGAGGAUCACCCAUGUGUUACAUGGAAUUCAG [Brourd's SSNG1/1-A2 mod 12] (Eterna round: R96, puzzle: Same State NG 1)
4. GGUGCAAUUAACGCCUACAUGAGGAUCACCCAUGUAUGUAGGCAGGAUAUCGUUUGCUUUGCAAACGAGAAGGGCUGUAGUACC [JL SSNG3 1.14] (Eterna round: R96, puzzle: Same State NG 3)
5. GUGGUCAGACAUGAGGAUCACCCAUGUGGAAUAAAUAAGGAGAAGGAUAUCGAAUAUAGGAUAUACGAGAAGGUUUGGUUGGUG (Eterna round: R96, puzzle: Same State NG 3)
6. UUAAUUAUGUAAGGAUAUACAUGAGGAUUUCUCGUAGAAGGUACAUUACAUGAGGAUCACCCAUGUGGGUGUCAGAAGACGCCA [Mat - Same State NG 1 - JL mod - D12] (Eterna round: R96, puzzle: Same State NG 1)
7. AGUAGUGUAACAUGAGGAUCACCCAUGUAAGUAGAUGUAACCUAGGAUAUGGAUGAUAUGUUAGUCCAGAAGGAGGAUUGUUUA [JR_SSNG3_Sub038] (Eterna round: R96, puzzle: Same State NG 3)
8. UUCACCUUAUUUUACAUGAGGAUCACCCAUGUUUUUUUUACGUAGGAUAUCGAUGCUUGAUUGUUCGAGAAGGACGAUGUAAGU [JR_SSND3_Sub054] (Eterna round: R96, puzzle: Same State NG 3)

1. 52.3
2. 8.11
3. 278
4. 89.3
5. 67.3
6. 210
7. 36.7
8. 24.3

Take each entry in turn and give its apparent KD of MS2 coat protein.
1. CUACGCGCCGCAGGAUAUGCCGACCCGUGUUGAGCAGAAGGGCGAAACAUGAGGAUCACCCAUGUUGAAAGAGCGCAAAAUUAA [Erteerte] (Eterna round: R96, puzzle: Same State NG 1)
2. GAGUGGAGGAAAGGAUAUACAAUGAUAAUCACAGUAGAAGGUUCUAACAUGAGGAUCACCCAUGUAGGACUAUACCAGAGAGGG [Parity 46 - Jieux - Same State NG 1] (Eterna round: R96, puzzle: Same State NG 1)

1. 16.4
2. 11.4

Give its apparent KD of MS2 coat protein value. Item: AGCCGAGACUGAGGAUAUUUGAAUCUACAUGAGGAUCACCCAUGUAGCAACACGUGGUAGUGAUCGAAGAAGGCAGCUCGGCGC [MOD of Omei's SS(NG)2 Cv2] (Eterna round: R96, puzzle: Same State NG 2)
45.7

====

Please provide measured apparent KD of MS2 coat protein for the entries that follow.
System: MS2 coat protein
Assay: apparent KD of MS2 coat protein; designed switch direction (-1 OFF switch, 1 ON switch): -1; higher = weaker reporter binding
Conditions: input ligand: none
Answers are plain numbers, in nM.

Illustrative cases are given below, each with its answer.
Requested read-out apparent KD of MS2 coat protein, target or system MS2 coat protein, entry UAACAAGCUUAAAGAUCCUACAUGAGGAUCACCCAUGUGCUCGUCUUGUAACGUACUGUGACGAAAGUCACGGUACG [JL TOV1 3.15] (Eterna round: R97, puzzle: Sensor, turn-off variant 1)
314

Return apparent KD of MS2 coat protein measured with MS2 coat protein given this sequence: UUUAACGAUGAGGAUAUAUGAUAUCAAAGCAUCAUAGAAGGCAUCACAUGAGGAUCACCCAUGUGAUCUUCUUG [Mat - Exclusion 6 - JL Mod - D28] (Eterna round: R97, puzzle: Exclusion 6)
29.4

Continuing:
Param readout= apparent KD of MS2 coat protein; system= MS2 coat protein; entry= CAGCUGAAAGUCAGGAUAUCUAGAGCGAUAGCUCUAGAGAAGGGACAUGAGGAUCACCCAUGUGAUCACAGCUG [BmEx4/4-A4] (Eterna round: R97, puzzle: Brourd's mod of Exclusion 4) ; returns value.
1980
